Numbers sourced from paper PMC10250385.

systemUnderTest: human pregnane X receptor (hPXR) (Homo sapiens, UniProt O75469)
Sequence (O75469 130-434 limits assumed): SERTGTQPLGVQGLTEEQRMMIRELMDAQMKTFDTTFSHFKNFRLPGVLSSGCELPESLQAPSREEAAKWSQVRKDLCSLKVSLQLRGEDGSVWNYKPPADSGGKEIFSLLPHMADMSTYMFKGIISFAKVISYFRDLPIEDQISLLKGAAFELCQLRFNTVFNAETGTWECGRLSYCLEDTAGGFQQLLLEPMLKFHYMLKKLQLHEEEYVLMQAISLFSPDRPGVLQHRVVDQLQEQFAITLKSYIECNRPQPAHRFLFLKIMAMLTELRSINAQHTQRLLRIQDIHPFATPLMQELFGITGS
protocolDetails: biochemical
Set-up: gene NR1I2
resultType: IC50 (µM)
Give bare numbers, in µM.

Request: # input compound: CC(=O)O[C@H]1CC(=O)OC(C)(C)[C@@H]2CC(=O)[C@]3(C)[C@H](CC[C@@]4(C)[C@H](c5ccoc5)OC(=O)[C@H]5O[C@]543)[C@@]12C [nomilin] ; wanted: its IC50
Response: 5.8
